- assay_system: hERG channels (Homo sapiens (Human), UniProt Q12809)
- Sequence (Q12809 whole entry): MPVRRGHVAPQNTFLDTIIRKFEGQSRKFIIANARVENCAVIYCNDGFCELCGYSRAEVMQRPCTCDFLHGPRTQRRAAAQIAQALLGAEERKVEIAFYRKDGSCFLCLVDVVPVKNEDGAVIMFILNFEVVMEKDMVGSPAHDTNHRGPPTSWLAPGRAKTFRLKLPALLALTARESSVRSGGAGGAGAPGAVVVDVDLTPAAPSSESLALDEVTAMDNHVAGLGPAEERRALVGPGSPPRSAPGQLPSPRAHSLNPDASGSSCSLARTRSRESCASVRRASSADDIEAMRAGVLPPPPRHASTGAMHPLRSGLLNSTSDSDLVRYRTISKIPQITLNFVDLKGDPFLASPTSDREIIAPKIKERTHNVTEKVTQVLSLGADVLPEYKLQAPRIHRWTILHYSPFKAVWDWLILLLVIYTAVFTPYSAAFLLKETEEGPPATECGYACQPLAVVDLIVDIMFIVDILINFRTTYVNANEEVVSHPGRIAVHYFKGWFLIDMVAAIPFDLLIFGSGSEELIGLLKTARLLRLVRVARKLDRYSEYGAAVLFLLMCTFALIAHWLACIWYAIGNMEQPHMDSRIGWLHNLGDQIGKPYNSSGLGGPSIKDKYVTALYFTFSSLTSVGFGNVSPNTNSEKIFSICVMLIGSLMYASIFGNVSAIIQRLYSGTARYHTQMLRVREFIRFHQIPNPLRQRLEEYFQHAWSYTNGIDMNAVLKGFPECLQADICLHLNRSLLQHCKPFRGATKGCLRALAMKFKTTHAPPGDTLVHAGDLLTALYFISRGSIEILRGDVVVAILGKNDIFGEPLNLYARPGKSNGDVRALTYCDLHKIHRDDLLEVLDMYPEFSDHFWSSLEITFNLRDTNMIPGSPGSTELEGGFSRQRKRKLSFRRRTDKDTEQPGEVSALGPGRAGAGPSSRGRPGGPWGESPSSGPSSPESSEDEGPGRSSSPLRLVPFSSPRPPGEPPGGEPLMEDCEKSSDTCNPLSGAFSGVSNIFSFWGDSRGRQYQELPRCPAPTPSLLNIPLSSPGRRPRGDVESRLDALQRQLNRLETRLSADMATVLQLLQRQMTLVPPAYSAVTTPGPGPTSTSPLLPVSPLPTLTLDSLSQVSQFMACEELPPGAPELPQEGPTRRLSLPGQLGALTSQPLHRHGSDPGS
- test_name: hERG Manual Patch Clamp Assay
- Assay type: cell-based
- details: human, HEK 293 cells stably expressing hERG channels, pH 7.4, 1 uM, read-out: hERG EP % Inh @ 1 uM
Kindly return class 1 if reported inhibition at 1 µM is no lower than 20%; return class 0 if it is lower.

Here's what some known entries look like.
{"molecule": "Cc1ncn(-c2ncc(CN3CCN[C@H](c4ccc5c(c4C)COC5=O)C3)cn2)c1C", "assay_system": "hERG channels (Homo sapiens (Human), UniProt Q12809)", "assigned_class": "class 0"}
{"molecule": "Cc1c([C@@H]2CN(Cc3cnn(-c4ccc(C#N)cc4)c3)CCO2)ccc2c1COC2=O", "assay_system": "hERG channels (Homo sapiens (Human), UniProt Q12809)", "assigned_class": "class 1"}

Check this molecule for inhibition at 1 µM at or above 20%: `Cc1nn(-c2ccc(CN3CCN[C@H](c4ccc5c(c4C)COC5=O)C3)nc2)cc1C#N` class 0

Given the entry `Cc1c([C@@H]2CN(Cc3cnn(-c4ccnc(C(F)F)c4)c3)C[C@H](C)N2)ccc2c1COC2=O` , answer whether its inhibition at 1 µM meets or surpasses 20%. class 0

Is inhibition at 1 µM at least 20%? Consider `Cc1c([C@@H]2CN(Cc3cnn(-c4cc(C(F)(F)F)c(C#N)cn4)c3)C[C@H](C)N2)ccc2c1COC2=O` class 0

Decide: inhibition at 1 µM of `COc1cc(-n2cc(CN3CCN[C@H](c4ccc5c(c4C)COC5=O)C3)nn2)nc(C)c1C#N` >= 20%? class 0

Is the recorded value of inhibition at 1 µM equal to or greater than 20% for this molecule? `Cc1c([C@@H]2CN(Cc3cnn(-c4ccnc(C(F)(F)F)c4)c3)C[C@H](C)N2)ccc2c1COC2=O` class 0
